Attribution: patent US12258327B2

target_system: EGFR L858R/C797S (Homo sapiens, UniProt P00533, C797S/L858R)
Sequence (P00533 25-1210 C797S/L858R): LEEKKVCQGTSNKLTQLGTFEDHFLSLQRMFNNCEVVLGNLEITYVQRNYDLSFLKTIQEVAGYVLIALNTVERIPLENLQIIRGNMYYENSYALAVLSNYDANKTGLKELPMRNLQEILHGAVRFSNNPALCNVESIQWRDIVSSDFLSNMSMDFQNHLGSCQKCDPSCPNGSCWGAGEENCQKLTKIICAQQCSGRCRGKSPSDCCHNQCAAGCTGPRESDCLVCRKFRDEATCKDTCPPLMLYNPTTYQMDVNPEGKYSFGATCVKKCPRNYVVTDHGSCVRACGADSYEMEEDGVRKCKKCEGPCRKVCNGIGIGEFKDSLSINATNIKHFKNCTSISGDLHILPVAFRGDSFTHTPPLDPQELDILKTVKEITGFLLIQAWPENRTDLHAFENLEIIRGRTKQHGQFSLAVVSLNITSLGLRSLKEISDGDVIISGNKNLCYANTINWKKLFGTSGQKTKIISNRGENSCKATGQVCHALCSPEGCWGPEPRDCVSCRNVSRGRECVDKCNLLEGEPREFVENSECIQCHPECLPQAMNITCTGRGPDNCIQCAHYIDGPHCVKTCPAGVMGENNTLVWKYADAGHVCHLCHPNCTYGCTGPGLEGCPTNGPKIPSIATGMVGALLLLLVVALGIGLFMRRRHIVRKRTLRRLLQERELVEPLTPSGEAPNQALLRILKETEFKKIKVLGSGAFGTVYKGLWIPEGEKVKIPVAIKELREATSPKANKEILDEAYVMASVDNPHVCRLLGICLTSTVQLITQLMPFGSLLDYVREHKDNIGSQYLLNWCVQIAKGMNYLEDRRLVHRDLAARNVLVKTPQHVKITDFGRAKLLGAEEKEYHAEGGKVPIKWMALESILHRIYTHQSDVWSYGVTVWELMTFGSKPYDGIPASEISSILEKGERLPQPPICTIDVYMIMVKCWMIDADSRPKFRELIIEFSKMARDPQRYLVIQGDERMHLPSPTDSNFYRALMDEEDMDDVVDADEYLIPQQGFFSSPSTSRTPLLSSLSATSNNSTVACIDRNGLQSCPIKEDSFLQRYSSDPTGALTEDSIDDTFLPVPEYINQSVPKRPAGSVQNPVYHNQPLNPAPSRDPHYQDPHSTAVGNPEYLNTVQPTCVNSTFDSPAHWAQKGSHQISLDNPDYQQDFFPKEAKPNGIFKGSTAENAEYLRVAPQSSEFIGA
test_details: Biochemical EGFR kinase assay (Lance Ultra TR-FRET), double mutant L858R/C797S
experimental_setup: IC50 L858R/C797S, 100 μM ATP
parameter_measured: pIC50
Answers are plain numbers, as −log10 of the molar value.

Query string: Kindly state the measured pIC50 obtained for O=S(=O)(C1CC1)n1cc(-c2nccc(Nc3cc(N[C@H]4C[C@@H](CO)C4)c(-c4ccn(C(F)F)n4)cn3)n2)cn1 [Example 377] with EGFR L858R/C797S (Homo sapiens, UniProt P00533, C797S/L858R).
Result string: 6.76

Query string: Kindly state the measured pIC50 obtained for CC1(O)CCC(Nc2cc(Nc3ccnc(N4CCC(O)C(F)(F)C4)n3)ncc2-c2ccn(C(F)F)n2)CC1 (stereo not drawn) [Example 348] with EGFR L858R/C797S (Homo sapiens, UniProt P00533, C797S/L858R).
Result string: 6.83

Query string: Kindly state the measured pIC50 obtained for CC1(O)CCC(Nc2cc(Nc3ccnc(N4CC(CO)C(C)(C)C4)n3)ncc2-c2ccn(C(F)F)n2)CC1 (stereo not drawn) [Example 347] with EGFR L858R/C797S (Homo sapiens, UniProt P00533, C797S/L858R).
Result string: 6.35

Query string: Kindly state the measured pIC50 obtained for C[C@]1(CO)C[C@@H](Nc2cc(Nc3ccnc(-c4cnn(S(=O)(=O)C5CC5)c4)n3)ncc2-c2ccn(C(F)F)n2)C1 [Example 378] with EGFR L858R/C797S (Homo sapiens, UniProt P00533, C797S/L858R).
Result string: 6.29

Query string: Kindly state the measured pIC50 obtained for CC1(O)CCC(Nc2cc(Nc3ccnc(N4CC(CO)C(F)(F)C4)n3)ncc2-c2ccn(C(F)F)n2)CC1 (stereo not drawn) [Example 346] with EGFR L858R/C797S (Homo sapiens, UniProt P00533, C797S/L858R).
Result string: 6.39

For each entry beneath this line, provide reported pIC50.
1. C[C@]1(O)CC[C@@H](Nc2cc(Nc3ccnc(-c4cnn(S(=O)(=O)C5CC5)c4)n3)ncc2-n2cccn2)CC1 [Example 376]
2. C[C@]1(O)CC[C@@H](Nc2cc(Nc3ccnc(-c4cnn(S(=O)(=O)C5CC5)c4)c3)ncc2-c2ccn(C(F)F)n2)CC1 [Example 354]
3. CC1(O)CCC(Nc2cc(Nc3ccnc(N4CC(O)C(F)(F)C4)n3)ncc2-c2ccn(C(F)F)n2)CC1 (stereo not drawn) [Example 349]
4. Cn1nc(-c2cnc(Nc3ccnc(N4CCC(O)C(F)(F)C4)n3)cc2NC2CCC(C)(O)CC2)cc1C(F)(F)F (stereo not drawn) [Example 353]

Result string:
1: 6.90; 2: 5.59; 3: 6.52; 4: 6.56

---

target_system: EGFR del19/C797S (Homo sapiens, UniProt P00533, C797S/DEL746-750)
Sequence (P00533 with tags, fused parts or gaps DEL746-750/C797S): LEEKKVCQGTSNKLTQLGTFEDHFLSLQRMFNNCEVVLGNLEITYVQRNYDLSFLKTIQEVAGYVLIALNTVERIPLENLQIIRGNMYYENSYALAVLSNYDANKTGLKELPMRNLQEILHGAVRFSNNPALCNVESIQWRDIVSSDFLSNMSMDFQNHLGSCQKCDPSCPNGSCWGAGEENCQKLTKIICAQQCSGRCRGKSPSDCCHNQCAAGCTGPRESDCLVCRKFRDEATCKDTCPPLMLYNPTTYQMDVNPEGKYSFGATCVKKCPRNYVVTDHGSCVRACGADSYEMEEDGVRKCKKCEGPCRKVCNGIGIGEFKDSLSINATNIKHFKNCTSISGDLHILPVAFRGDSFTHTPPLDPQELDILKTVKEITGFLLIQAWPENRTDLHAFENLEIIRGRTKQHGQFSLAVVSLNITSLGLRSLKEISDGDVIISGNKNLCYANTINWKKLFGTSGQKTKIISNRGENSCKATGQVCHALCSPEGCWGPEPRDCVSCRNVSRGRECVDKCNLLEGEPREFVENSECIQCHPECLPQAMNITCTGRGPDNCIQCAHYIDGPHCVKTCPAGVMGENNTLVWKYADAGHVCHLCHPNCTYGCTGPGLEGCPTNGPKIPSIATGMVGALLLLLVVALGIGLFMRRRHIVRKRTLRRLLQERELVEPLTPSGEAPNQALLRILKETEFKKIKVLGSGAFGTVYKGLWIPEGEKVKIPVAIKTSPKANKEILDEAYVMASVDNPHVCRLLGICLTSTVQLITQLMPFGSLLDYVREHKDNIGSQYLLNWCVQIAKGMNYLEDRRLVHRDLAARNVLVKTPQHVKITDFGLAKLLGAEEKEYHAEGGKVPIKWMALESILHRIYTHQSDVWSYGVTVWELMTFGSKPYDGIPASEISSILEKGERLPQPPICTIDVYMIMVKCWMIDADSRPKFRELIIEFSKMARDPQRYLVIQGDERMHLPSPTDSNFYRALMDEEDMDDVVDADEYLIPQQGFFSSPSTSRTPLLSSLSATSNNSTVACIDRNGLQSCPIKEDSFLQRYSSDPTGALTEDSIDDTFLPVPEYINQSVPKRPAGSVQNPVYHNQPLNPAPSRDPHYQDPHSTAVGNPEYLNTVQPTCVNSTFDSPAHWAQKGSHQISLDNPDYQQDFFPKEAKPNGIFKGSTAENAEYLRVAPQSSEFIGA
test_details: Biochemical EGFR kinase assay (Lance Ultra TR-FRET), double mutant del19/C797S
experimental_setup: IC50 del19/C797S (nM) 100 μM ATP, 100 μM ATP
parameter_measured: IC50 (nM)
Give bare numbers, in nM.

// solved cases for IC50 follow
Query string: # lookup: IC50 of CCOC(=O)c1ccn(-c2cnc(Nc3ccnc(-c4cnn(S(=O)(=O)C5CC5)c4)n3)cc2N[C@H]2CC[C@@](C)(O)CC2)n1
Result string: 10.6

Query string: # lookup: IC50 of C[C@]1(O)CC[C@@H](Nc2cc(Nc3nc(-c4cnn(S(=O)(=O)C5CC5)c4)ncc3F)ncc2-c2ccn(C(F)F)n2)CC1
Result string: 10.5

Query string: # lookup: IC50 of O=S(=O)(C1CC1)n1cc(-c2nccc(Nc3cc(NCC4CCCC(O)C4)c(-c4ccn(C(F)F)n4)cn3)n2)cn1 (stereo not shown)
Result string: 2.5

Query string: # lookup: IC50 of Cn1ccc(-c2cnc(Nc3ccnc(-c4cnn(S(=O)(=O)C5CC5)c4)n3)cc2NC[C@H]2CC[C@](C)(O)CC2)n1
Result string: 0.9

Query string: # lookup: IC50 of O=C1NCCCC1Nc1cc(Nc2ccnc(-c3cnn(S(=O)(=O)C4CC4)c3)n2)ncc1-c1ccn(C(F)F)n1 (stereo not shown)
Result string: 24.8

Query string: # lookup: IC50 of CC(C)(O)[C@H]1CC[C@@H](Nc2cc(Nc3ccnc(-c4cnn(S(=O)(=O)C5CC5)c4)n3)ncc2-c2cc3n(n2)CCCC3)CC1
Result string: 6.2

For each entry beneath this line, provide reported IC50.
1. CN(C)C[C@H]1CC[C@H](CNc2cc(Nc3ccnc(-c4cnn(S(=O)(=O)C5CC5)c4)n3)ncc2-c2csc(C(F)(F)F)n2)CC1
2. O=S(=O)(C1CC1)n1cc(-c2nccc(Nc3cc(N[C@H]4CC[C@@H](CCO)CC4)c(-c4ccn(CC(F)(F)F)n4)cn3)n2)cn1
3. O=S(=O)(C1CC1)n1cc(-c2nccc(Nc3cc(NCC4CC5(CNC5)C4)c(-c4ccn(C(F)F)n4)cn3)n2)cn1
4. CN1CC(Nc2cc(Nc3ccnc(-c4cnn(S(=O)(=O)C5CC5)c4)n3)ncc2-c2ccn(C(F)F)n2)CCC1=O (stereo not shown)
5. Cn1ccc(-c2cnc(Nc3ccnc(-c4cnn(S(=O)(=O)C5CC5)c4)n3)cc2N[C@H]2CCC[C@H](CO)C2)n1
6. Cn1ccc(-c2cnc(Nc3ccnc(-c4cnn(S(=O)(=O)C5CC5)c4)n3)cc2NCC2(C)CCC(O)CC2)n1 (stereo not shown)

Result string:
[0.4, 29.9, 1.8, 16.6, 1.3, 25.8]

Query string: # lookup: IC50 of O=S(=O)(C1CC1)n1cc(-c2nccc(Nc3cc(N[C@H]4CC[C@@H](O)CC4)c(-c4cnn(C(F)F)c4)cn3)n2)cn1
Result string: 80.8
